These measurements were taken from BindingDB's records for patent US10774052.

target: Fibroblast growth factor receptor 4 (Homo sapiens)
Sequence (P22455 whole entry): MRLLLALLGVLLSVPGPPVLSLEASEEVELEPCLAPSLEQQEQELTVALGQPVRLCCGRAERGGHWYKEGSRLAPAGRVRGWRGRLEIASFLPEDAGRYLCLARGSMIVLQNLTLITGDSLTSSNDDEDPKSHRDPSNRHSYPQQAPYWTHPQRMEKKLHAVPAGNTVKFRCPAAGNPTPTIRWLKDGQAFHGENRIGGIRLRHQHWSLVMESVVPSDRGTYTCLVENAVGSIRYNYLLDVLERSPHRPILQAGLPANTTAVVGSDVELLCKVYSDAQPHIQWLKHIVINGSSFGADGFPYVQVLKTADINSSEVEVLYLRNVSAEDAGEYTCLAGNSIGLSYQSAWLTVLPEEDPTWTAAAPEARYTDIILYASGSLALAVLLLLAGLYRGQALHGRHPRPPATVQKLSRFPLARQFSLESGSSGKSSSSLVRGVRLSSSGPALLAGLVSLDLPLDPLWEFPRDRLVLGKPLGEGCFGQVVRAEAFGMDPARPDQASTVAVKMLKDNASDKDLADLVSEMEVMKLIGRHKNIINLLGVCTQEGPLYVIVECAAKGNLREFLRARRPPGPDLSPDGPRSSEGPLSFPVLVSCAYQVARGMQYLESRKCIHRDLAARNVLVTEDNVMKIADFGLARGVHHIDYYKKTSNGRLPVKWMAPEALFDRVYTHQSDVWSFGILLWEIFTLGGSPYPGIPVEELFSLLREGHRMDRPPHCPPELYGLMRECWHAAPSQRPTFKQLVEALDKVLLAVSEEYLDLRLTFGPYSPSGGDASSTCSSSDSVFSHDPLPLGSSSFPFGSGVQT
READOUT_KIND: IC50

In [3]: df
Out[3]:
                                   compound    result
0  C=CC(=O)Nc1cc(C2=CCN(CC)CC2)ccc1Nc1ncc2c(n1)N(CC)C(=O)N(c1cc(OC)cc(OC)c1)C2 [US10774052, Compound I-56]  < 100 nM
